Test: absolute recovery over vacuum-assisted evaporative concentration; higher = better recovery
Condition description: wastewater effluent; enrichment method: VEC
Measured absolute recovery, listed per entry.
Use % as the unit, but write only the number.

Below are worked cases with known answers.
- CC(=O)Nc1ccc(O)cc1 [Paracetamol (=3-Acetamidophenol)]: 101
- CCOP(=O)(OCC)Oc1cc(C)nc(C(C)C)n1 [Diazoxon]: 85.6
- Nc1nc(=O)n(C2CSC(CO)O2)cc1F (stereo not given) [Emtricitabine]: 103
- CC1COC(Cn2cncn2)(c2ccc(Oc3ccc(Cl)cc3)cc2Cl)O1 (stereo not given) [Difenoconazol]: 100
- CCc1cccc(C)c1N1C(=O)COCC1C (stereo not given) [Metolachlor-Morpholinon]: 89.6
- CC(C)(C)Nc1nc(N)nc(Cl)n1 [Terbutylazin-desethyl]: 97.7

Report absolute recovery for CC1(C(=O)Nc2ccc(O)c(Cl)c2Cl)CCCCC1 [Fenhexamid] please.
92.1

Which absolute recovery is listed for N#CC1CCCN1C(=O)C[NH2+]C12CC3CC(CC(O)(C3)C1)C2 (stereo not given) [Vildagliptin] ?
105

Give the measured absolute recovery of Cc1cc(=O)n(-c2ccccc2)n1C [Phenazon (=Antipyrin)] .
106

What does the record list as absolute recovery for C[NH2+]C(C)C(=O)c1ccc(C)cc1 (stereo not given) [Mephedron (=4-Methylmethcathinon)] ?
76.7

Item under review: CCNc1nc(NC(C)C)nc(OC)n1 [Atraton] . Reported absolute recovery?
101

Item under review: C[NH+]1C2CCC1C(C(=O)[O-])C(OC(=O)c1ccccc1)C2 (stereo not given) [Benzoylecgonin] . Reported absolute recovery?
120

----------
Test: absolute recovery over mixed-bed multilayer solid-phase extraction; higher = better recovery
Condition description: wastewater effluent; enrichment method: SPE
Parameter: absolute recovery (%)
Give the value, in units of %, as a plain number.

// known answers, use as guide
• COc1cc2[nH+]c(N3CCN(C(=O)C4COc5ccccc5O4)CC3)nc(N)c2cc1OC (configuration not stated) = 108
• CCCC1CC(C(=O)NC(C(C)Cl)C2OC(SC)C(O)C(O)C2O)[NH+](C)C1 (configuration not stated) = 90
• CC(C)(C)Nc1nc(N)nc(Cl)n1 = 95.8
• CC(C)CC(C)(O)C#CC(C)(O)CC(C)C (configuration not stated) [Surfynol-104A] = 73.8
• [NH3+]C(Cc1cc(I)c(O)c(I)c1)C(=O)[O-] (configuration not stated) = 55.8
• CC(C)N1C(=O)N(c2ccccc2)CSC1=NC(C)(C)C = 87.5
• CCOP(=S)(OCC)Oc1cc(C)nc(C(C)C)n1 = 80.5
• CCOP(=O)(OCC)OC(=CCl)c1ccc(Cl)cc1Cl = 94.3

Now for a further compound.
Quick one: absolute recovery for C[NH+](C)CC(c1ccc(O)cc1)C1(O)CCCCC1 (configuration not stated) ?
90.6

----------
Test: absolute recovery over vacuum-assisted evaporative concentration; higher = better recovery
Condition description: wastewater influent; enrichment method: VEC
Consider the following compounds and their measured absolute recovery readings.
Give just the numeric value; % need not be written.

Need absolute recovery, item CC(C1CC1)C(O)(Cn1cncn1)c1ccc(Cl)cc1 (stereo not given) [Cyproconazol]
95.8

What does the record list as absolute recovery for N#CN=C1SCCN1Cc1ccc(Cl)nc1 [Thiacloprid] ?
106

Sample COc1ccc(C(C[NH+](C)C)C2(O)CCCCC2)cc1 (stereo not given) [Venlafaxin] — what was its absolute recovery?
100

Query (compound): CC(Oc1ccc(Oc2ccc(C(F)(F)F)cn2)cc1)C(=O)[O-] (stereo not given) [Fluazifop] ; field requested: absolute recovery
102

Using the record for O=C1Nc2ccc(Cl)cc2C(c2ccccc2Cl)=NC1O (stereo not given) [Lorazepam] , report its absolute recovery.
104

Return reported absolute recovery; argument: CCOC(=O)C1=CC(OC(CC)CC)C(NC(C)=O)C([NH3+])C1 (stereo not given) [Oseltamivir]
107

Report absolute recovery for CC(C)CC(C[NH3+])CC(=O)[O-] (racemic) [Pregabalin-rac] please.
101

----------
Test: absolute recovery over vacuum-assisted evaporative concentration; higher = better recovery
Condition description: wastewater influent; enrichment method: VEC
Parameter: absolute recovery (%)
Give a bare numeral; the unit % is implied.

Known absolute recovery results, listed for orientation:
- CC(C)C([NH3+])C(=O)OCC(CO)OCn1cnc2c(=O)[nH+]c(N)[nH]c21 (stereo not given): 72.2
- CCCC(C)(COC(N)=O)COC(=O)NC(C)C (stereo not given): 102
- CCN(CC)C(=O)Nc1ccc(OCC(O)C[NH2+]C(C)(C)C)c(C(C)=O)c1 (stereo not given): 103

Item under review: N#Cc1nn(-c2c(Cl)cc(C(F)(F)F)cc2Cl)c(N)c1S(=O)C(F)(F)F (stereo not given) . Reported absolute recovery?
98.5

Dear colleague, I am looking for the recorded absolute recovery of the following compound: COCCN(C(=O)CCl)c1c(C)cccc1C
97.7

----------
Test: absolute recovery over vacuum-assisted evaporative concentration; higher = better recovery
Condition description: wastewater effluent; enrichment method: VEC
Parameter: absolute recovery

Here is how some molecules turned out for absolute recovery.
* Cc1cc(C)nc([N-]S(=O)(=O)c2ccc(N)cc2)n1 | 103%
* CCC[NH2+]C(C)C(=O)Nc1ccccc1C (stereo not given) | 109%
* C#CC[NH2+]C(C)Cc1ccccc1 (stereo not given) | 38.9%

Given Cc1cccc(N(C)C(=S)Oc2ccc3ccccc3c2)c1 , state its recorded absolute recovery.
90.5%

Tell me the measured absolute recovery of CC(=O)Nc1ccc(S(=O)(=O)[N-]c2nc(C)cc(C)n2)cc1 , please.
108%

----------
This section presents compounds with their documented absolute recovery values.
Test: absolute recovery over vacuum-assisted evaporative concentration; higher = better recovery
Condition description: wastewater influent; enrichment method: VEC
Write the number in % without appending the unit.

These solved cases illustrate the format of a correct answer.
* CN(C)S(=O)(=O)Nc1ccccc1 [DMSA (=N-N-Dimethylaminosulfanilid)] | 95.6
* O=C1Nc2ccc(Cl)cc2C(C#CC2CC2)(C(F)(F)F)O1 (centres undefined) [Efavirenz] | 124
* CCCCC(C#N)(Cn1cncn1)c1ccc(Cl)cc1 (centres undefined) [Myclobutanil] | 101

GET /values?readout=absolute recovery&item= COCc1cnc(C2=NC(C)(C(C)C)C(=O)N2)c(C(=O)[O-])c1 (centres undefined) [Imazamox]
94.7

Any idea what its absolute recovery is? The compound is COc1nc(NC(C)C)nc(NC(C)C)n1 [Prometon F]
106

Looking for the measured absolute recovery of C=C1CC2C(CCC3(C)C(=O)CCC23)C2(C)C=CC(=O)C=C12 (centres undefined) [Exemestan] , can you help?
71.7

absolute recovery lookup needed for CCC1OC(=O)C(C)C(OC2CC(C)(OC)C(O)C(C)O2)C(C)C(OC2OC(C)CC([NH+](C)C)C2O)C(C)(OC)CC(C)C(=O)C(C)C(O)C1(C)O (centres undefined) [Clarithromycin] , thanks.
105

For the compound shown here, [O-]n1nnc2ccccc21 [1-Hydroxybenzotriazole H] , give the reported absolute recovery.
73

----------
Test: absolute recovery over mixed-bed multilayer solid-phase extraction; higher = better recovery
Condition description: nanopure water; enrichment method: SPE
Values of absolute recovery greater than or equal to 90% map to Yes; values below map to No.

Hi, just wondering whether O=[N+]([O-])c1ccc(C2OC2c2ccc([N+](=O)[O-])cc2S(=O)(=O)[O-])c(S(=O)(=O)[O-])c1 (configuration not stated) [1-2-Bis-(4-4-dinitro-2-2-disulfonic acid-phenylethylenoxide] shows absolute recovery of 90% or higher.
Yes

Does the molecule COC(=O)c1ccc(I)cc1S(=O)(=O)[N-]C(=O)Nc1nc(C)nc(OC)n1 have recorded absolute recovery that is 90% or more?
Yes

----------
// reported absolute recovery for each item listed
Test: absolute recovery over mixed-bed multilayer solid-phase extraction; higher = better recovery
Condition description: surface water; enrichment method: SPE

- COCc1cnc(C2=NC(C)(C(C)C)C(=O)N2)c(C(=O)[O-])c1 (centres undefined): 93.4%
- Cc1cc(C(C)(C)C)cc(C)c1CC1=[NH+]CCN1: 84%
- Cc1onc(-c2ccccc2)c1C(=O)NC1C(=O)N2C1SC(C)(C)C2C(=O)[O-] (centres undefined): 10.8%

Item under review: COc1cc(OC)n2nc(S(=O)(=O)Nc3c(Cl)ccc(C)c3Cl)nc2n1 . Reported absolute recovery?
96.2%

Can you share its absolute recovery? I mean this compound: Cc1cn(C2CC(N=[N+]=[N-])C(CO)O2)c(=O)[nH]c1=O (centres undefined)
93.4%

What does the data say about its absolute recovery? Entry: Cc1cc(=O)n(-c2ccccc2)n1C [Phenazon (=Antipyrin)]
93.4%

----------
Test: absolute recovery over mixed-bed multilayer solid-phase extraction; higher = better recovery
Condition description: wastewater influent; enrichment method: SPE
absolute recovery by entry:
Field format: number, assumed %, no unit text.

// below: answered molecules
- O=C([O-])C[N-]S(=O)(=O)C(F)(F)C(F)(F)C(F)(F)C(F)(F)C(F)(F)C(F)(F)C(F)(F)C(F)(F)F: 32.2
- COC(=O)c1sccc1S(=O)(=O)[N-]C(=O)Nc1nc(C)nc(OC)n1: 92.3

Given the molecule CC(C)N(Cc1ccccc1)C(=O)C(C)(C)C , what is its reported absolute recovery?
89.5

Fill in: absolute recovery of Cc1cncc(C(=O)[O-])c1 is ___
100
